tested-system: Mitogen-activated protein kinase kinase kinase 5 (Homo sapiens)
Sequence (Q99683 whole entry): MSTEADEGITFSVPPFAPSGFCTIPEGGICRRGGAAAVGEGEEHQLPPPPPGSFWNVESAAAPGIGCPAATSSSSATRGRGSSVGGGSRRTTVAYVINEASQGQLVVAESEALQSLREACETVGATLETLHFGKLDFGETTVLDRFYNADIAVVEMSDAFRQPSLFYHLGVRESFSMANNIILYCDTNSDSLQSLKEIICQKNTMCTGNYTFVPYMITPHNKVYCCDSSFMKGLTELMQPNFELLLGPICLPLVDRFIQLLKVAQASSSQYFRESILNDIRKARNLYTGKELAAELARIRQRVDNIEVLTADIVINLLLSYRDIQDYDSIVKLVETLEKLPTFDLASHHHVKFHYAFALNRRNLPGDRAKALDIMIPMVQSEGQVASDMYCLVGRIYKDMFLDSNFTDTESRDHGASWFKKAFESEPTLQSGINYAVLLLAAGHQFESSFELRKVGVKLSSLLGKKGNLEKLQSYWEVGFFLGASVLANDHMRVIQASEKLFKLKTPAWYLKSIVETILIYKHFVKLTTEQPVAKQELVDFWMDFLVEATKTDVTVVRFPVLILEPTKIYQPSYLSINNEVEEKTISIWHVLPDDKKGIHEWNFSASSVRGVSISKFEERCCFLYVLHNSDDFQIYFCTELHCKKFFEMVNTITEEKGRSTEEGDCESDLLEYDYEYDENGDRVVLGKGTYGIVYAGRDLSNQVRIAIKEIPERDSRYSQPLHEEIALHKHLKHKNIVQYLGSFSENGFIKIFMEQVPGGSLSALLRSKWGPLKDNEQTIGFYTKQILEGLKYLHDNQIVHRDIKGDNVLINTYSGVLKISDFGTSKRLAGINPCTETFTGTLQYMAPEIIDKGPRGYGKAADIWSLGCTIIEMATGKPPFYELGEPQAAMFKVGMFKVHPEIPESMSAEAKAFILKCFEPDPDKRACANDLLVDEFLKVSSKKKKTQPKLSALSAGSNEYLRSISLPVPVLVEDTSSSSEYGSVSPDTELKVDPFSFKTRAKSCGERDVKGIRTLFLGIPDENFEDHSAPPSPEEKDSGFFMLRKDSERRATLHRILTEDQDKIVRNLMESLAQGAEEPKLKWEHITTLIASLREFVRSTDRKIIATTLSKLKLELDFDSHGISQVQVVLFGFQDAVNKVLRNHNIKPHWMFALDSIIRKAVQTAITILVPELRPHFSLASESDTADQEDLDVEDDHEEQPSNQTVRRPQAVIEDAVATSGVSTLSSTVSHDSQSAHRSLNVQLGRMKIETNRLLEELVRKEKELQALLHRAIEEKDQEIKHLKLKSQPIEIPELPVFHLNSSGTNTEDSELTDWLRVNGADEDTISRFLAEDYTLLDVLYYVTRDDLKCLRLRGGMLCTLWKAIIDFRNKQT
protocol-description: Inhibition of ASK1 (unknown origin) assessed as reduction in JNK phosphorylation by cell based assay
measured-quantity: pEC50
// pEC50 is dimensionless: -log10 of concentration (M)

Worked set:
COCCOc1ccnc(NC(=O)c2csc(-c3nncn3C(C)C)n2)c1
6.85
COCCCn1cc(NC(=O)c2csc(-c3nncn3C(C)C)n2)cn1
7.19

Need pEC50, item `COCCNc1ccnc(NC(=O)c2csc(-c3nncn3C(C)C)n2)c1`
7.00

Need pEC50, item `CC(C)n1cnnc1-c1nc(C(=O)Nc2cnn(C3COC3)c2)cs1`
6.89
